molecular target: UniProt P23458; experiment: Jak biochemical HTRF assay, JAK1; settings: HTRF biochemical assay, recombinant GST-tagged catalytic domain; read-out: JAK1 IC50
Sequence (P23458 875-1153): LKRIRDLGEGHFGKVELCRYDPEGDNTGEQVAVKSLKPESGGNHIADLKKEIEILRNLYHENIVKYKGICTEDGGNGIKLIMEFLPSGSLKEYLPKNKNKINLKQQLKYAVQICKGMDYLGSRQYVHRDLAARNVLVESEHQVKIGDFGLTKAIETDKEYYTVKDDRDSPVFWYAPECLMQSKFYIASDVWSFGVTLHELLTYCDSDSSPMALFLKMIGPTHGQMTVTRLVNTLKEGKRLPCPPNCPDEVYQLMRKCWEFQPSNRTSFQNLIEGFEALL
quantity: IC50 (nM)

>  <molecule>
CC1(O)CN([C@@H]2CC[C@H](n3nc(Nc4ccc(Cl)cc4)c4c(=O)[nH]ccc43)[C@@H](C#N)C2)C1 [Example 5-21]

>  <readout_unit>
nM

>  <IC50>
0.35

$$$$

I. N#C[C@@H]1CCCC[C@@H]1n1nc(Nc2ccc(F)cc2)c2c(=O)[nH]ccc21 (racemic) [Example 1-1]
II. N#C[C@H]1CCCC[C@@H]1n1nc(Nc2ccccc2)c2c(=O)[nH]ccc21 [Example 3-25]
III. CC(C)(C)OC(=O)CC(C)(C)N1Cc2cc(Nc3nn([C@H]4CCCC[C@@H]4C#N)c4cc[nH]c(=O)c34)ccc2S1(=O)=O [Example 3-155]
IV. N#C[C@@H]1C[C@@H](O)CC[C@H]1n1nc(Nc2ccc(C(F)(F)F)cc2)c2c(=O)[nH]ccc21 [Example 3-89]
Query: Please list the entries, largest IC50 first. # answer = labels listed in requested order
Response: IV, I, II, III
